# system tested: SMARCA4 (Homo sapiens, UniProt P51532)
# Construct: SMARCA4-HiBiT knock-in Hela monoclonal cell (CS3023226); host or cells: HeLa (HiBiT knock-in monoclonal line)
# Sequence (P51532 whole entry): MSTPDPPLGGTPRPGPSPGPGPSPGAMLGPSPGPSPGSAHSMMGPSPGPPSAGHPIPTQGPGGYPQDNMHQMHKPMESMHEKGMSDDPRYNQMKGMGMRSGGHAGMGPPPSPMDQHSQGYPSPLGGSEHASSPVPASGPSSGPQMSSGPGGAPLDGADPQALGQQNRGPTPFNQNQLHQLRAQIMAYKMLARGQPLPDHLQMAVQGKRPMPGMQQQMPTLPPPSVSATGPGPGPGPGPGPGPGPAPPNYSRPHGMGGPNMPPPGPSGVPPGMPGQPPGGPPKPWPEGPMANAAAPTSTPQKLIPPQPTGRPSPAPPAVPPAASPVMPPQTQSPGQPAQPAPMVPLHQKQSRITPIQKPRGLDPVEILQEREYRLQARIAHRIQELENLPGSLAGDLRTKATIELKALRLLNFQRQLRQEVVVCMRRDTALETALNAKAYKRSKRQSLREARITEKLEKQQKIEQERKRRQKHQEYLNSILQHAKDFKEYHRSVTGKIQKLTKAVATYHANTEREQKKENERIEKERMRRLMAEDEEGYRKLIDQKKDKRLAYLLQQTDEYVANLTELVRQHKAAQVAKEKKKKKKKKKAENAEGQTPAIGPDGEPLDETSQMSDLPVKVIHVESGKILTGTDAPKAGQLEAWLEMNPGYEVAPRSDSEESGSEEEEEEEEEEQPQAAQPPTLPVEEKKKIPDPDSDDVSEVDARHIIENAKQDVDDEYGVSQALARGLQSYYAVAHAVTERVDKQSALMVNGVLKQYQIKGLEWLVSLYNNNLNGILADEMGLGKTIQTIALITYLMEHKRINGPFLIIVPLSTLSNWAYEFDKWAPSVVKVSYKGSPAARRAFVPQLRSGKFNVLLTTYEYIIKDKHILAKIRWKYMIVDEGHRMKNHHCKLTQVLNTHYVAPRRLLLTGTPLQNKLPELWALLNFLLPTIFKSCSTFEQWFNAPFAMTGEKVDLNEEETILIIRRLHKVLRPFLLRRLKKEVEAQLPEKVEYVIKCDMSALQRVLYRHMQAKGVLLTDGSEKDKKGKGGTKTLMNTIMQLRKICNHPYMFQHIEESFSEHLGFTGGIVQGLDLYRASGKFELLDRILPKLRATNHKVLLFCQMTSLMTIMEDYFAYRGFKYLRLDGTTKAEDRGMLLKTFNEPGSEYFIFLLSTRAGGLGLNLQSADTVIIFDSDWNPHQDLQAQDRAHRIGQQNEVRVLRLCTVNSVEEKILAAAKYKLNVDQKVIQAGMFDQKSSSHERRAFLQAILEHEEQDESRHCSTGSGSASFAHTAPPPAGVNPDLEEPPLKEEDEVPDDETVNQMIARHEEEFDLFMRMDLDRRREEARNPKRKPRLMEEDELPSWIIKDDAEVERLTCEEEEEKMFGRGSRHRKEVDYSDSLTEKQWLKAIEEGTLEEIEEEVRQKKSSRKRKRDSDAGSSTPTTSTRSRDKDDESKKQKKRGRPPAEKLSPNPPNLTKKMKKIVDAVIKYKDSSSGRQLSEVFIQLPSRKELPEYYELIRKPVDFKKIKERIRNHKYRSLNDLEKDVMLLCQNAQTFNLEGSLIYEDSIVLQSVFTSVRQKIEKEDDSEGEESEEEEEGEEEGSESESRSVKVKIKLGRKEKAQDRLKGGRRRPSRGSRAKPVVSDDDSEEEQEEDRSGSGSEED
# procedure text: SMARCA4 HiBiT degradation assay in HeLa cells
# Type: cell-based
# run parameters: 18 hours incubation, read-out: Dmax % (SM4-HeLa), maximum SMARCA4 degradation within the concentrations tested
experimental readout: Dmax

Reference set, count: 2
molecule	experimental readout	recorded result
Cc1ncsc1-c1ccc([C@H](C)NC(=O)[C@@H]2C[C@@H](O)CN2C(=O)[C@@H](c2cc(OCCN3CCC(N4CCCC5(CNc6nnc(-c7ccccc7O)cc6N5)C4)C3)no2)C(C)C)cc1 (some centres unmarked)	Dmax	> 75%
Cc1ncsc1-c1ccc([C@H](C)NC(=O)[C@@H]2C[C@@H](O)CN2C(=O)[C@@H](c2cc(OCCN3CCC(N4CCCC5(CNc6nnc(-c7ccccc7O)cc6N5)C4)CC3)no2)C(C)C)cc1 (some centres unmarked)	Dmax	> 75%

Provide only the value of recorded Dmax for Cc1ncsc1-c1ccc([C@H](C)NC(=O)[C@@H]2C[C@@H](O)CN2C(=O)[C@@H](c2cc(OCCN3CCC(N4CCC5(CC4)CNc4nnc(-c6ccccc6O)cc4N5)C3)no2)C(C)C)cc1 (some centres unmarked)
> 75%

Provide only the value of recorded Dmax for `Cc1ncsc1-c1ccc([C@H](C)NC(=O)[C@@H]2C[C@@H](O)CN2C(=O)[C@@H](c2cc(OCCN3CCC(CN4CCC5(CC4)CNc4nnc(-c6ccccc6O)cc45)CC3)no2)C(C)C)cc1`
≤ 50%

Provide only the value of recorded Dmax for Cc1ncsc1-c1ccc([C@H](C)NC(=O)[C@@H]2C[C@@H](O)CN2C(=O)[C@@H](c2cc(OCCN3CCC(CN4CCCC5(CNc6nnc(-c7ccccc7O)cc6N5)C4)CC3)no2)C(C)C)cc1 (some centres unmarked)
> 75%
